Measured On: serotonin 5-HT2A receptor (Homo sapiens)
Construct: expressed in transfected cells; host or cells: HEK-293
Sequence (P28223 whole entry): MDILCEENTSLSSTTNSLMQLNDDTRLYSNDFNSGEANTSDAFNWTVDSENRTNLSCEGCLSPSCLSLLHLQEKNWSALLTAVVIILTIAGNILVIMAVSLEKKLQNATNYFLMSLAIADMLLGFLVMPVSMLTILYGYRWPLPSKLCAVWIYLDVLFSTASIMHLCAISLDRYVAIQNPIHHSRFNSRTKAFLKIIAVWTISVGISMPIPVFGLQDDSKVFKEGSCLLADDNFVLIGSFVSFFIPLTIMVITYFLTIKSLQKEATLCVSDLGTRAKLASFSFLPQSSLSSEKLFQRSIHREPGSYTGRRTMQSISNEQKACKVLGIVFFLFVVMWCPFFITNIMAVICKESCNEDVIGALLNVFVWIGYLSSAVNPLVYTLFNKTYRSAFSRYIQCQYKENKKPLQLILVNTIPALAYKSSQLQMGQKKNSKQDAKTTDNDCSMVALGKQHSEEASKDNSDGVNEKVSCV
Protocol Description: Radioligand binding assay, human recombinant receptor in HEK cells
Condition Context: read-out: % Inhibition (mean) of control specific binding
Could you please report measured inhibition at 0.01 µM for the items listed next?

Entry [2H]C([2H])(CCN1CC[C@H]2[C@@H](C1)c1cccc3c1N2CC(=O)N3)Oc1ccc(F)cc1 [Example 7] , serotonin 5-HT2A receptor (Homo sapiens) data, inhibition at 0.01 µM value: 63.5%

Entry [2H]C1([2H])C(=O)Nc2cccc3c2N1[C@H]1CCN(CCCOc2ccc(F)cc2)C[C@@H]31 [Example 1] , serotonin 5-HT2A receptor (Homo sapiens) data, inhibition at 0.01 µM value: 64.7%

Entry [2H]c1c([2H])c(OCCCN2CC[C@H]3[C@@H](C2)c2cccc4c2N3CC(=O)N4)c([2H])c([2H])c1F [Example 6] , serotonin 5-HT2A receptor (Homo sapiens) data, inhibition at 0.01 µM value: 60.2%

Entry [2H]C([2H])(CC([2H])([2H])N1CC[C@H]2[C@@H](C1)c1cccc3c1N2CC(=O)N3)Oc1ccc(F)cc1 [Example 3] , serotonin 5-HT2A receptor (Homo sapiens) data, inhibition at 0.01 µM value: 64.1%

Entry [2H]C1([2H])C(=O)Nc2cccc3c2N1[C@H]1CCN(C([2H])([2H])C([2H])([2H])C([2H])([2H])Oc2ccc(F)cc2)C[C@@H]31 [Example 9] , serotonin 5-HT2A receptor (Homo sapiens) data, inhibition at 0.01 µM value: 60.1%

Entry O=C1CN2c3c(cccc3[C@@H]3CN(CCCOc4ccc(F)cc4)CC[C@@H]32)N1 [Formula A] , serotonin 5-HT2A receptor (Homo sapiens) data, inhibition at 0.01 µM value: 63%

----------
Could you please report measured concentration at 1 h for the items listed next?
Protocol Description: in vivo
Condition Context: rat, sc, 3 mg/kg
API: value field is a number in ng/mL; no unit string.

Kindly note the recorded concentration at 1 h for [2H]C([2H])(Oc1ccc(F)cc1)C([2H])([2H])C([2H])([2H])N1CC[C@H]2[C@@H](C1)c1cccc3c1N2CC(=O)N3 [Example 2] , which is 81.4

Kindly note the recorded concentration at 1 h for [2H]c1c([2H])c(OC([2H])([2H])C([2H])([2H])C([2H])([2H])N2CC[C@H]3[C@@H](C2)c2cccc4c2N3C([2H])([2H])C(=O)N4)c([2H])c([2H])c1F [Example 8] , which is 78.9

----------
Measured On: dopamine D1 receptor (Homo sapiens, UniProt P21728)
Construct: expressed in transfected cells; host or cells: CHO
Sequence (P21728 whole entry): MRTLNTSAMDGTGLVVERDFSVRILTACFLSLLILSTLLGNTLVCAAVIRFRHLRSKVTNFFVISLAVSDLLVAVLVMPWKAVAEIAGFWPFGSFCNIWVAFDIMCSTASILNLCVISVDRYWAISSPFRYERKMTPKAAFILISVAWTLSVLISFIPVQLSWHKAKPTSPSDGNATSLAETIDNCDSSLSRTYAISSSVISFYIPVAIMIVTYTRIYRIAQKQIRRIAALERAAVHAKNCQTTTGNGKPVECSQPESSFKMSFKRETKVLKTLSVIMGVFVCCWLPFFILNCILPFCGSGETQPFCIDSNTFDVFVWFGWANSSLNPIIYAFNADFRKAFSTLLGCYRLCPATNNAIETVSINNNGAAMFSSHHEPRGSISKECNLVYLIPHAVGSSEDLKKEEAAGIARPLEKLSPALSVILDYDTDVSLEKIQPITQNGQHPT
Protocol Description: Radioligand binding assay, human recombinant receptor in CHO cells
Condition Context: read-out: % Inhibition (mean) of control specific binding
Exam item: assign t to entries whose inhibition at 0.1 µM is below 40% and f to entries at or above 40%. Note that a value of exactly 40% receives f.

I wonder whether [2H]C1([2H])C(=O)Nc2cccc3c2N1[C@H]1CCN(C([2H])([2H])C([2H])([2H])C([2H])([2H])Oc2ccc(F)cc2)C[C@@H]31 has inhibition at 0.1 µM below 40%. Can you tell?
t

I wonder whether [2H]c1c([2H])c(OCCCN2CC[C@H]3[C@@H](C2)c2cccc4c2N3CC(=O)N4)c([2H])c([2H])c1F has inhibition at 0.1 µM below 40%. Can you tell?
t

I wonder whether [2H]C([2H])(CCN1CC[C@H]2[C@@H](C1)c1cccc3c1N2CC(=O)N3)Oc1ccc(F)cc1 has inhibition at 0.1 µM below 40%. Can you tell?
t

I wonder whether [2H]C1([2H])C(=O)Nc2cccc3c2N1[C@H]1CCN(CCCOc2ccc(F)cc2)C[C@@H]31 has inhibition at 0.1 µM below 40%. Can you tell?
t

I wonder whether [2H]C([2H])(CC([2H])([2H])N1CC[C@H]2[C@@H](C1)c1cccc3c1N2CC(=O)N3)Oc1ccc(F)cc1 has inhibition at 0.1 µM below 40%. Can you tell?
t

I wonder whether O=C1CN2c3c(cccc3[C@@H]3CN(CCCOc4ccc(F)cc4)CC[C@@H]32)N1 has inhibition at 0.1 µM below 40%. Can you tell?
f

----------
Could you please report measured concentration at 1 h for the items listed next?
Protocol Description: in vivo
Condition Context: rat, po, 10 mg/kg
API: value field is a number in ng/mL; no unit string.

Kindly note the recorded concentration at 1 h for [2H]c1c([2H])c(OC([2H])([2H])C([2H])([2H])C([2H])([2H])N2CC[C@H]3[C@@H](C2)c2cccc4c2N3C([2H])([2H])C(=O)N4)c([2H])c([2H])c1F [Example 8] , which is 62.4

Kindly note the recorded concentration at 1 h for [2H]C([2H])(Oc1ccc(F)cc1)C([2H])([2H])C([2H])([2H])N1CC[C@H]2[C@@H](C1)c1cccc3c1N2CC(=O)N3 [Example 2] , which is 72.3

----------
Protocol Description: in vivo
Condition Context: rat, po, 10 mg/kg
Could you please report measured concentration at 2 h for the items listed next?
API: value field is a number in ng/mL; no unit string.

Kindly note the recorded concentration at 2 h for [2H]c1c([2H])c(OC([2H])([2H])C([2H])([2H])C([2H])([2H])N2CC[C@H]3[C@@H](C2)c2cccc4c2N3C([2H])([2H])C(=O)N4)c([2H])c([2H])c1F [Example 8] , which is 133

Kindly note the recorded concentration at 2 h for [2H]C([2H])(Oc1ccc(F)cc1)C([2H])([2H])C([2H])([2H])N1CC[C@H]2[C@@H](C1)c1cccc3c1N2CC(=O)N3 [Example 2] , which is 143

----------
Could you please report measured inhibition at 1 µM for the items listed next?
Measured On: serotonin transporter (SERT) (Homo sapiens)
Construct: expressed in transfected cells; host or cells: CHO
Sequence (P31645 whole entry): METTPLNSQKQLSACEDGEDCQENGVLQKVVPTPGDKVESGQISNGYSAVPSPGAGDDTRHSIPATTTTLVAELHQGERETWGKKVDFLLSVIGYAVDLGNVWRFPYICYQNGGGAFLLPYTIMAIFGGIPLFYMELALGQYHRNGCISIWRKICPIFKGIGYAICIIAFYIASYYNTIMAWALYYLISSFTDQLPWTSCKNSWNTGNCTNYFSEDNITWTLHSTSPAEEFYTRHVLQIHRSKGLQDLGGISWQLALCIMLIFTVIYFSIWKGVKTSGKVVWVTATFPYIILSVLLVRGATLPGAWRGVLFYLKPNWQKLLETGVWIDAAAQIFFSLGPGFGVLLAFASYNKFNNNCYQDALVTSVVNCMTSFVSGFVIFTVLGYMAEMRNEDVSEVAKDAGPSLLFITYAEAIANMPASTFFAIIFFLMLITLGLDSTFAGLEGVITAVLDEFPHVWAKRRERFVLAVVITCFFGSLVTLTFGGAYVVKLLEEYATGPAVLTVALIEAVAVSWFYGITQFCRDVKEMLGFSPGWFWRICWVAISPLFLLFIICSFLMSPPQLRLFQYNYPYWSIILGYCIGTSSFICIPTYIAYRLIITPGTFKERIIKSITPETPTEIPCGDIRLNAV
Protocol Description: Radioligand binding assay, human recombinant transporter in CHO cells
Condition Context: read-out: % Inhibition (mean) of control specific binding
API: value field is a number in %; no unit string.

Kindly note the recorded inhibition at 1 µM for O=C1CN2c3c(cccc3[C@@H]3CN(CCCOc4ccc(F)cc4)CC[C@@H]32)N1 , which is 33.4

Kindly note the recorded inhibition at 1 µM for [2H]C1([2H])C(=O)Nc2cccc3c2N1[C@H]1CCN(C([2H])([2H])C([2H])([2H])C([2H])([2H])Oc2ccc(F)cc2)C[C@@H]31 , which is 28.4

Kindly note the recorded inhibition at 1 µM for [2H]c1c([2H])c(OCCCN2CC[C@H]3[C@@H](C2)c2cccc4c2N3CC(=O)N4)c([2H])c([2H])c1F , which is 29.1

Kindly note the recorded inhibition at 1 µM for [2H]C([2H])(CC([2H])([2H])N1CC[C@H]2[C@@H](C1)c1cccc3c1N2CC(=O)N3)Oc1ccc(F)cc1 , which is 31.8

Kindly note the recorded inhibition at 1 µM for [2H]C1([2H])C(=O)Nc2cccc3c2N1[C@H]1CCN(CCCOc2ccc(F)cc2)C[C@@H]31 , which is 34.5

Kindly note the recorded inhibition at 1 µM for [2H]C([2H])(CCN1CC[C@H]2[C@@H](C1)c1cccc3c1N2CC(=O)N3)Oc1ccc(F)cc1 , which is 31.1

----------
Could you please report measured Tmax for the items listed next?
Protocol Description: in vivo
Condition Context: rat, sc, 3 mg/kg
API: value field is a number in h; no unit string.

Kindly note the recorded Tmax for [2H]C([2H])(Oc1ccc(F)cc1)C([2H])([2H])C([2H])([2H])N1CC[C@H]2[C@@H](C1)c1cccc3c1N2CC(=O)N3 , which is 1

Kindly note the recorded Tmax for [2H]c1c([2H])c(OC([2H])([2H])C([2H])([2H])C([2H])([2H])N2CC[C@H]3[C@@H](C2)c2cccc4c2N3C([2H])([2H])C(=O)N4)c([2H])c([2H])c1F , which is 1

----------
Protocol Description: in vivo
Condition Context: rat, po, 10 mg/kg
Experimental Readout: Cmax (ng/mL)
API: value field is a number in ng/mL; no unit string.

Kindly note the recorded Cmax for [2H]C([2H])(Oc1ccc(F)cc1)C([2H])([2H])C([2H])([2H])N1CC[C@H]2[C@@H](C1)c1cccc3c1N2CC(=O)N3 , which is 64.6

Kindly note the recorded Cmax for [2H]c1c([2H])c(OC([2H])([2H])C([2H])([2H])C([2H])([2H])N2CC[C@H]3[C@@H](C2)c2cccc4c2N3C([2H])([2H])C(=O)N4)c([2H])c([2H])c1F , which is 68.4

----------
Protocol Description: in vivo
Condition Context: rat, sc, 3 mg/kg
Could you please report measured concentration at 12 h for the items listed next?
API: value field is a number in ng/mL; no unit string.

Kindly note the recorded concentration at 12 h for [2H]c1c([2H])c(OC([2H])([2H])C([2H])([2H])C([2H])([2H])N2CC[C@H]3[C@@H](C2)c2cccc4c2N3C([2H])([2H])C(=O)N4)c([2H])c([2H])c1F , which is 4.1

Kindly note the recorded concentration at 12 h for [2H]C([2H])(Oc1ccc(F)cc1)C([2H])([2H])C([2H])([2H])N1CC[C@H]2[C@@H](C1)c1cccc3c1N2CC(=O)N3 , which is 3.9
